Molecular target: human V2 receptor (Homo sapiens, UniProt P30518)
Sequence (P30518 whole entry): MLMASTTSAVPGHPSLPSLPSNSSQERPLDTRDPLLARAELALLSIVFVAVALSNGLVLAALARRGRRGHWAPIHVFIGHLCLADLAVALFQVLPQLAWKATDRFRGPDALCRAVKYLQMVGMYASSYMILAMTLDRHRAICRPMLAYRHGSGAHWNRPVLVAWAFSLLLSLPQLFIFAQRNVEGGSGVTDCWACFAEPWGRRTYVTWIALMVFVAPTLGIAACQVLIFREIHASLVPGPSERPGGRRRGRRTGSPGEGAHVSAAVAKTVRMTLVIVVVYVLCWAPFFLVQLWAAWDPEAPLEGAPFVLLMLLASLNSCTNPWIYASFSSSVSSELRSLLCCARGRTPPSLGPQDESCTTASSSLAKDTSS
Assay: In vitro recombinant vasopressin receptor binding assay (3H-arginine vasopressin displacement), V2
Settings: cloned human V2 receptor membranes, HEK-293 cells
Kindly state pIC50 for each of the entries shown.
A value of pIC50 is the negative decimal logarithm of a concentration given in moles per litre.

Q: State its pIC50 on human V2 receptor (Homo sapiens, UniProt P30518): O=C(Nc1ccc(C(=O)N2C[C@@H]3C4CCC(C4)N3Cc3cc(Cl)ccc32)cc1)c1ccccc1-c1ccc(F)cc1 (stereo partly shown) [Compound 9]
Ans: 7.59

Q: Form entry - test system: human V2 receptor (Homo sapiens, UniProt P30518); read-out: pIC50; compound: O=C(Nc1ccc(C(=O)N2C[C@@H]3C4CCC(C4)N3Cc3ccccc32)c(Cl)c1)c1ccccc1-c1ccccc1 (stereo partly shown) [Compound 4]
Ans: 8.40

Q: # returns recorded pIC50 (system: human V2 receptor (Homo sapiens, UniProt P30518)) for O=C(Nc1ccc(C(=O)N2C[C@@H]3C4CCC(CC4)N3Cc3cc(Cl)ccc32)cc1)c1ccccc1Cl [Compound 15]
Ans: 7.46

Q: Find pIC50 (human V2 receptor (Homo sapiens, UniProt P30518)) for the entry Cc1ccc(-c2ccccc2C(=O)Nc2ccc(C(=O)N3C[C@@H]4C5CCC(CC5)N4Cc4cc(Cl)ccc43)cc2)cc1 [Compound 16]
Ans: 7.14

Q: Report pIC50 for O=C(Nc1ccc(C(=O)N2C[C@@H]3C4CCC(C4)N3Cc3cc(Cl)ccc32)cc1)c1ccccc1F (stereo partly shown) [Compound 10] tested on human V2 receptor (Homo sapiens, UniProt P30518).
Ans: 8.00

Q: human V2 receptor (Homo sapiens, UniProt P30518) / pIC50 / O=C(Nc1ccc(C(=O)N2C[C@@H]3C4CCC(CC4)N3Cc3ccccc32)c(Cl)c1)c1ccccc1-c1ccccc1 [Compound 13] : value?
Ans: 7.62

Q: Query pIC50 on human V2 receptor (Homo sapiens, UniProt P30518) for Cc1ccc(-c2ccccc2C(=O)Nc2ccc(C(=O)N3C[C@@H]4C5CCC(C5)N4Cc4ccccc43)c(Cl)c2)cc1 (stereo partly shown) [Compound 7]
Ans: 8.52

Q: Look up pIC50 with human V2 receptor (Homo sapiens, UniProt P30518) for this compound: Cc1ccc(F)cc1C(=O)Nc1ccc(C(=O)N2C[C@@H]3C4CCC(CC4)N3Cc3ccccc32)c(Cl)c1 [Compound 14]
Ans: 7.72

Q: Request - read-out pIC50 | tested on human V2 receptor (Homo sapiens, UniProt P30518) | compound O=C(Nc1ccc(C(=O)N2C[C@H]3C4CCC(C4)N3Cc3ccccc32)c(Cl)c1)c1ccccc1-c1ccccc1 (stereo partly shown) [Compound 5]
Ans: 7.82

Q: Report pIC50 for O=C(Nc1ccc(C(=O)N2CC3C4CCC(CC4)N3Cc3ccccc32)c(Cl)c1)c1ccccc1-c1ccccc1 (racemic) [Compound 2] tested on human V2 receptor (Homo sapiens, UniProt P30518).
Ans: 8.40

Q: For the record O=C(Nc1ccc(C(=O)N2C[C@@H]3C4CCC(C4)N3Cc3cc(Cl)ccc32)cc1)c1ccccc1Cl (stereo partly shown) [Compound 11] , what value of pIC50 is listed for human V2 receptor (Homo sapiens, UniProt P30518)?
Ans: 8.15

Q: Could you share what pIC50 was measured for Cc1ccc(-c2ccccc2C(=O)Nc2ccc(C(=O)N3C[C@@H]4C5CCC(C5)N4Cc4cc(Cl)ccc43)cc2)cc1 (stereo partly shown) [Compound 6] , tested on human V2 receptor (Homo sapiens, UniProt P30518)?
Ans: 8.30

Q: What value of pIC50 on human V2 receptor (Homo sapiens, UniProt P30518) does O=C(Nc1ccc(C(=O)N2C[C@@H]3C4CCC(C4)N3Cc3ccccc32)c(Cl)c1)c1ccccc1-c1ccccc1 (mixture of isomers) [Compound 3] have?
Ans: 7.82
